biological target: MR (Homo sapiens, UniProt P08235); test: MR activation (max fold activation); type: cell-based; details: Table 4
Sequence (P08235 whole entry): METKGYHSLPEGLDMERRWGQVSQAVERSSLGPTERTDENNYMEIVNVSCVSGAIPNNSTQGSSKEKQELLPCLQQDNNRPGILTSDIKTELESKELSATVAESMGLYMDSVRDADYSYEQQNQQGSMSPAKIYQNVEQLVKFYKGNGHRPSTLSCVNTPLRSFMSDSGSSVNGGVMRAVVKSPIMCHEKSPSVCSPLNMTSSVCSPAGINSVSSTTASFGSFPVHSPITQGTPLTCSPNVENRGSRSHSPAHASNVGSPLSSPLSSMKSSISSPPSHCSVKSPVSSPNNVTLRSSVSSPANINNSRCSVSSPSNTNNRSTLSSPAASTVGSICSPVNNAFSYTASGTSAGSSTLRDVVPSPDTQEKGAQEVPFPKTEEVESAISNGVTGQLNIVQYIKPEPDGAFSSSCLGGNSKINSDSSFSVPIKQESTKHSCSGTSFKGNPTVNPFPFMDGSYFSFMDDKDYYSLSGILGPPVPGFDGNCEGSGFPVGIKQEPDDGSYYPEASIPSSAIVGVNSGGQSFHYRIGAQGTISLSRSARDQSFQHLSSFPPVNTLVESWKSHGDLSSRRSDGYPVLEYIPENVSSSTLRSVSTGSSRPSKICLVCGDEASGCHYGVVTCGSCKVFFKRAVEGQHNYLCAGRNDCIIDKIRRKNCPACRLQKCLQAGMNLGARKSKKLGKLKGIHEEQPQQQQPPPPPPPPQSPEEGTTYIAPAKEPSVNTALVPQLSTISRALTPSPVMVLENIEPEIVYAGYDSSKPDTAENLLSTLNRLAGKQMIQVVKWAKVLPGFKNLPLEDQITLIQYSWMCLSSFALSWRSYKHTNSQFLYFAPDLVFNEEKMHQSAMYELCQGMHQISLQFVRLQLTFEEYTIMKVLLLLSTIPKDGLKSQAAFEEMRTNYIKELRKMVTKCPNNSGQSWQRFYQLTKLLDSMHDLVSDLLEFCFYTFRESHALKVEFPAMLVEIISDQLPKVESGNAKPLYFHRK
metric: MR max fold activation
Please reply with the value in numeric form only.

molecule: CC12Cc3cnn(-c4ccc(F)cc4)c3C=C1CCCC2C(O)c1ccsc1 (stereo not drawn)
measuredResult: 6.2
--
molecule: Cc1cc(O)cc(C)c1C(O)C1CCCC2=Cc3c(cnn3-c3ccc(F)cc3)CC21C (stereo not drawn)
measuredResult: 3.2

Lookup: Using the record for CC12Cc3cnn(-c4ccc(F)cc4)c3C=C1CCCC2C(O)c1csc2ccccc12 (stereo not drawn) , state its measured MR max fold activation.
Found: 2.0

---

target: GR (Rattus norvegicus, UniProt P06536); construct: gift of Keith Yamamoto; test: AP-1 repression luciferase assay in U2OS cells stably transfected with rat GR; conditions: Table 5; TPA-stimulated U2OS cells; read-out: Repression AP-1 pot (EC50)
Sequence (P06536 whole entry): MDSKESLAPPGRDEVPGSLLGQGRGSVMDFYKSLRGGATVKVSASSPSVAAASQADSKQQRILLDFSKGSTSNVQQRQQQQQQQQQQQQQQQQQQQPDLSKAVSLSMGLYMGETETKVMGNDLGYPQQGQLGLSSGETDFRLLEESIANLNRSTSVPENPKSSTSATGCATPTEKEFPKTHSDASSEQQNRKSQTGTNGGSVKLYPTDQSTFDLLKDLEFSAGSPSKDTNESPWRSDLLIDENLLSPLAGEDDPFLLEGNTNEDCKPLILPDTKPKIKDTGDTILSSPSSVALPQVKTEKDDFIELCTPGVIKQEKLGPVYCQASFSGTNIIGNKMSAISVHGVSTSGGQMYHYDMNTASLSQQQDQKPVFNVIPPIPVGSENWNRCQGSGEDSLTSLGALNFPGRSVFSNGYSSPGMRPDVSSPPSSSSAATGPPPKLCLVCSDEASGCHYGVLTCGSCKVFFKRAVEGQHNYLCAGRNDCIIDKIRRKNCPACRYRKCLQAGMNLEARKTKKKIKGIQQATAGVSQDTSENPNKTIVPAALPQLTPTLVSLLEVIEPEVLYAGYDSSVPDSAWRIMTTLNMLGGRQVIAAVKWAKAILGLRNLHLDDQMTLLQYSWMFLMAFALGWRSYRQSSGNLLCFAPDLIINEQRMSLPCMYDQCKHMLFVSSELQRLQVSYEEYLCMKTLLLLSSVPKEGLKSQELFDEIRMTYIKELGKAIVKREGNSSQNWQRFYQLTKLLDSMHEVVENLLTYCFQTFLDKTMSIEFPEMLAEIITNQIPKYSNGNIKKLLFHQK
metric: pEC50
Just so you know, pEC50 here is -log10 of the concentration in molar units; reply with that number alone.

Consider the following illustrative entries.
compound: Cc1cc(C(O)C2CCCC3=Cc4c(cnn4-c4ccc(F)cc4)CC32C)ccc1O (stereo not drawn)
pEC50: 7.78

compound: CC12Cc3cnn(-c4ccc(F)cc4)c3C=C1CCCC2C(O)c1cccc(O)c1 (stereo not drawn)
pEC50: 7.78

Attention now turns to another entry.
Lookup: Look up and report pEC50, with GR (Rattus norvegicus, UniProt P06536) as system, for CC12Cc3cnn(-c4ccc(F)cc4)c3C=C1CCCC2C(O)c1csc2ccccc12 (stereo not drawn)
Found: 8.28
